- test.method.notes: Cytotoxicity against human HaCaT cells assessed as cell viability at 1 to 10 uM incubated for 24 hrs followed by H2O2 stimulation by celltiter-glo assay relative to control
- Type: cell-based
- setup.conditions: dose 1-10 µM, read-out: Activity
property.measured: viability at 24 h, up to 10 µM

stdin: Looking for the measured viability at 24 h, up to 10 µM of C=C(C)[C@@H]1CCC(C)=C[C@H]1c1c(O)cc(CCCCC)cc1O [CANNABIDIOL] , can you help?
stdout: > 90%

###

- target.entity: UniProt:P29466
- Sequence (P29466 120-297 limits assumed): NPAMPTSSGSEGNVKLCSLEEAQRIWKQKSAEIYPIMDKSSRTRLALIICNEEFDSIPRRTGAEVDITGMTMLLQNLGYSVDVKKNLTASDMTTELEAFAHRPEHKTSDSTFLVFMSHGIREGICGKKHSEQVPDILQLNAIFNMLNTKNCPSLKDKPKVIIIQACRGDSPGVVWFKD
- Sequence (P29466 317-404 limits assumed): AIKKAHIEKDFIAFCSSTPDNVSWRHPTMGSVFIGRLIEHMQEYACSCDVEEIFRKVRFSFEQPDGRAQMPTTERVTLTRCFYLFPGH
- test.method.notes: Binding affinity to recombinant human caspase-1 assessed as dissociation constant measured after 90 sec by SPR method
property.measured: Kd (nM)
Return type: number; implicit unit nM.

stdin: Find the measured Kd: item C=C(C)[C@@H]1CCC(C)=C[C@H]1c1c(O)cc(CCCCC)cc1O [CANNABIDIOL] , target or system UniProt:P29466.
stdout: 18.8
